systemTested: rat B1R (bradykinin receptor 1) (Rattus norvegicus, UniProt P97583)
Construct: expressed in transfected cells; host or cells: CHO K1 cells
Sequence (P97583 1-337): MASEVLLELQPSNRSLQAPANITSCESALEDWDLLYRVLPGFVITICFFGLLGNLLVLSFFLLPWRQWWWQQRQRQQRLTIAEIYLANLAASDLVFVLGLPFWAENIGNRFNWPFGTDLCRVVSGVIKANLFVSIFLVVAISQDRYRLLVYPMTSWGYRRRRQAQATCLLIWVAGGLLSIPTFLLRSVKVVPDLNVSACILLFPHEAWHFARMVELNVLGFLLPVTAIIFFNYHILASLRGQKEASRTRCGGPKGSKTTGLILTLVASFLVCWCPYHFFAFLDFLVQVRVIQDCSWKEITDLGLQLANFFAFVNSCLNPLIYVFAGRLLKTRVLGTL
protocolText: FLIPR Ca2+ assay (Fluo-4) on CHO K1 cells stably transfected with the B1R gene of the rat (rB1R cells): % inhibition at 10 μM / IC50, agonist Des-Arg9-bradykinin
Format: cell-based
settings: CHO-K1, rat B1R
outcomeMeasure: inhibition at 10 µM
Write the figure, then the unit, nothing else.

Known results for compounds:
O=C(N[C@@H]1CCCc2ccc(C(=O)N3CCCC4(CCCN(c5ccncc5)C4)C3)cc21)c1ccccc1Cl (stereo partly shown) :: 102%
CN(C(=O)c1ccc(F)cc1C(F)(F)F)C1CCc2ccc(C(=O)N3CCC4(CC3)CCN(c3ccncc3)CC4)cc21 (stereo not shown) :: 103%
O=C(NC1CCc2ccc(C(=O)N3CCC4(CC3)CCN(c3ccncc3)C4)cc21)c1cc(F)c(F)cc1Cl (stereo not shown) :: 102%

Prompt line: What does the record list as inhibition at 10 µM for O=C(NC1CCc2ccc(C(=O)N3CCC4(CC3)CCN(c3ccncc3)CC4)cc21)c1ccc(F)cc1Cl (stereo not shown) ?
Response line: 105%

---

Overview of reported inhibition at 10 µM across a group of molecules:
systemTested: rat B1R (bradykinin receptor 1) (Rattus norvegicus)
Construct: expressed in transfected cells; host or cells: CHO K1 cells
Sequence (P97583 1-337): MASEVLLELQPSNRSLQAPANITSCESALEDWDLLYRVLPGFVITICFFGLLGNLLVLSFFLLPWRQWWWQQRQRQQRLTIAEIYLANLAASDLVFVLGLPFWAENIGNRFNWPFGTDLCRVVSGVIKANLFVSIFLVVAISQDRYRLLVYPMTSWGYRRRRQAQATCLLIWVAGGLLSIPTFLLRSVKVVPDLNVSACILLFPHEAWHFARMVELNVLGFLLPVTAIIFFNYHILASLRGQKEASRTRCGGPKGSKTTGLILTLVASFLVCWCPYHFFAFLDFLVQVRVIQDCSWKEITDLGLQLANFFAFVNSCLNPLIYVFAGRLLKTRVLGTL
protocolText: FLIPR Ca2+ assay (Fluo-4) on CHO K1 cells stably transfected with the B1R gene of the rat (rB1R cells): % inhibition at 10 μM / IC50, agonist Des-Arg9-bradykinin
Format: cell-based
settings: CHO-K1, rat B1R
Quick note: give the figure in %, leave out the unit.

Here's what some known entries look like.
COc1cccc(F)c1CN1CCC2(CC1)CCN(C(=O)c1ccc3c(c1)C(NC(=O)c1cc(C(F)(F)F)ccc1Cl)CC3)C2 (stereo not shown) [IND_CC-637] :: 69
O=C(/C=C/c1ccccc1Cl)NC1CCc2ccc(C(=O)N3CCC4(CC3)CCN(c3ccncc3)CC4)cc21 (stereo not shown) [Ind_CC-008] :: 74
CC1(C)CC(NC(=O)Cc2ccccc2Cl)c2cc(C(=O)N3CCC4(CC3)CCN(c3ccncc3)CC4)ccc21 (stereo not shown) [Ind_CC-053] :: 103
O=C(NC1CCc2ccc(C(=O)N3CCC4(CC3)CCN(c3ccncc3)CC4)cc21)c1cc(C(F)(F)F)ccc1Cl (stereo not shown) [IND_CC-217] :: 95
COc1ccc(CN2CCC3(CC2)CCN(C(=O)c2ccc4c(c2)C(NC(=O)c2cc(C(F)(F)F)ccc2Cl)CC4)C3)cc1F (stereo not shown) [IND_CC-636] :: 79
O=C(NC1CCc2ccc(C(=O)N3CCC4(CC3)CCN(c3ccc(C(F)(F)F)cc3)CC4)cc21)c1c(F)cccc1Cl (stereo not shown) [IND_CC-278] :: 101
O=C(NC1CCc2ccc(C(=O)N3CCC4(CC3)CCN(c3ccncc3)CC4)cc21)c1ccc(F)cc1C(F)(F)F (stereo not shown) [IND_CC-379] :: 103
O=C(NC1CCc2ccc(C(=O)N3CCC4(CCN(c5ccncc5)CC4)C3)cc21)c1cnccn1 (stereo not shown) [IND_CC-398] :: 88

Prompt line: inhibition at 10 µM for Cc1cccc(Cl)c1C(=O)NC1CCc2ccc(C(=O)N3CCC4(CCN(Cc5ccccc5C#N)CC4)C3)cc21 (stereo not shown) [IND_CC-733] ?
Response line: 83

Prompt line: What value of inhibition at 10 µM has been reported for the following molecule? O=C(c1ccc2c(c1)C(N(C(=O)c1ccccc1Cl)C1CC1)CC2)N1CCC2(CCN(S(=O)(=O)c3ccc(F)cc3F)CC2)C1 (stereo not shown) [IND_CC-616]
Response line: 81

Prompt line: What value of measured inhibition at 10 µM is listed for Cc1nc(CN2CCC3(CC2)CCN(C(=O)c2ccc4c(c2)C(NC(=O)c2cc(C(F)(F)F)ccc2Cl)CC4)CC3)c[nH]1 (stereo not shown) [IND_CC-662] ?
Response line: 76

Prompt line: Which inhibition at 10 µM reading was recorded for the molecule COc1ccc(C(=O)N[C@@H]2CCc3ccc(C(=O)N4CCC5(CCN(c6ccncc6)CC5)C4)cc32)c(F)c1 [Example H-108] ?
Response line: 111

---

systemTested: human B1R (bradykinin receptor 1) (Homo sapiens, UniProt P46663)
Construct: expressed in transfected cells; host or cells: CHO K1 cells
Sequence (P46663 whole entry): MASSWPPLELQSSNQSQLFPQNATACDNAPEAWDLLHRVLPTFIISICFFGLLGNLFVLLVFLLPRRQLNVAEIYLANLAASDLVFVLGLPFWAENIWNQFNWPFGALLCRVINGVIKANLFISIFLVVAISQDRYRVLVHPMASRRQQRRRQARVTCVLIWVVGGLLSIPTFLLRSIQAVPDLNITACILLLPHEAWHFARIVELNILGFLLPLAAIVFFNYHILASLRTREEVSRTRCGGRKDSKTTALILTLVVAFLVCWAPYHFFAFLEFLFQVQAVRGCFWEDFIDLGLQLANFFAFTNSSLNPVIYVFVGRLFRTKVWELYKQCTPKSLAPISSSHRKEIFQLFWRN
protocolText: FLIPR Ca2+ assay (Fluo-4) on CHO K1 cells stably transfected with the human B1R gene (hB1R cells): % inhibition at 10 μM / IC50, agonist Lys-Des-Arg9-bradykinin
Assay type: cell-based
settings: CHO-K1, human B1R
# inhibition at 10 µM per entry
Response body: numeric value in %, unit text excluded.

Example cases with answers are listed next.
CN(C(=O)c1cc(Cl)ccc1C(F)(F)F)C1CCc2ccc(C(=O)N3CCC4(CC3)CCN(c3ccncc3)CC4)cc21 (stereo not shown) :: 94
CC1(C)Cc2ccc(C(=O)N3CCC4(CC3)CCN(c3ccncc3)CC4)cc2C1NC(=O)c1cc(F)c(F)cc1Cl (stereo not shown) :: 100
O=C(/C=C/c1ccccc1Cl)NC1CCc2ccc(C(=O)N3CCC4(CCN(c5ccncc5)CC4)C3)cc21 (stereo not shown) :: 90

# evaluate next
Prompt line: Sample O=C(N[C@@H]1CCOc2ccc(C(=O)N3CCC4(CCN(c5ccncc5)CC4)C3)cc21)c1ccccc1Cl — what was its inhibition at 10 µM?
Response line: 100

---

systemTested: rat B1R (bradykinin receptor 1) (Rattus norvegicus, UniProt P97583)
Construct: expressed in transfected cells; host or cells: CHO K1 cells
protocolText: FLIPR Ca2+ assay (Fluo-4) on CHO K1 cells stably transfected with the B1R gene of the rat (rB1R cells): % inhibition at 10 μM / IC50, agonist Des-Arg9-bradykinin
Type: cell-based
settings: CHO-K1, rat B1R
Text: The agonistic or antagonistic action of substances can be quantified on the bradykinin receptor 1 (B1R) of the human and rat species with ectopically expressing cell lines (CHO K1 cells) and with the aid of a Ca^2+-sensitive dyestuff (Fluo-4) in a fluorescent imaging plate reader (FLIPR). […] The agonistic or antagonistic action of substances can be determined on the bradykinin receptor 1 (B1R) of the human and rat species with the following assay. […]
Entries and their measured inhibition at 10 µM follow.
Please state the figure in %; there is no need to write the unit.

CC1(C)CC(NS(=O)(=O)c2c(Cl)cccc2Cl)c2cc(C(=O)N3CCC4(CC3)CCN(c3ccncc3)CC4)ccc21 (stereo not shown) :: 97
O=C(NC1CCc2ccc(C(=O)N3CCC4(CCN(Cc5c(F)cccc5Cl)CC4)C3)cc21)c1ccccc1Cl (stereo not shown) :: 103
COc1cc(C)c(C(=O)NC2CCc3ccc(C(=O)N4CCC5(CC4)CCC(c4ccc(F)cc4)(N(C)C)CC5)cc32)c(C)c1 (stereo not shown) :: 74
CCC(CC)CN1CCC2(CC1)CCN(C(=O)c1ccc3c(c1)C(NC(=O)c1c(C)cccc1Cl)CC3)C2 (stereo not shown) :: 79
Cc1cccc(Cl)c1C(=O)NC1CCc2ccc(C(=O)N3CCC4(CCN(Cc5ccc(F)cc5Cl)CC4)C3)cc21 (stereo not shown) :: 95

Prompt line: What is its inhibition at 10 µM for rat B1R (bradykinin receptor 1) (Rattus norvegicus, UniProt P97583)? Entry: O=C(c1ccc2c(c1)C(NS(=O)(=O)Cc1ccccc1C(F)(F)F)CC2)N1CCC2(CC1)CCN(c1ccncc1)C2 (stereo not shown)
Response line: 98

Prompt line: Return inhibition at 10 µM measured with rat B1R (bradykinin receptor 1) (Rattus norvegicus, UniProt P97583) given this compound: Cn1nc(C(C)(C)C)cc1C(=O)N1CCC2(CCN(C(=O)c3ccc4c(c3)C(N(C(=O)c3ccccc3Cl)C3CC3)CC4)C2)CC1 (stereo not shown)
Response line: 67
